Kindly state Size (d, nm) for each of the entries shown.
# measurement_notes: Dimensions (size, PDI) of DNPs co-assembled from IAJDs and Luc-mRNA by DLS
# Assay type: physicochemical
# assay_conditions: Table 12; DNPs, IAJD 4 mg/mL + Luc-mRNA 0.10 mg/mL, acetate buffer 10 mM pH 4.0
Numbers only, in nm.

CCCCCCCCCCCCCCOc1cc(COC(=O)CCCN2CCN(C)CC2)cc(OCCCCCCCCCCCCCC)c1 [IAJD 74] = 180

Can you give me Size (d, nm) for all of these, one by one?
1. CCCCCCCOC(=O)CCCCOc1cc(COC(=O)CCCN2CCN(C)CC2)cc(OCCCCC(=O)OCCCCCCC)c1 [IAJD 85]
2. CCCCC(CC)COc1cc(COC(=O)CCCN2CCN(CCO)CC2)cc(OCC(CC)CCCC)c1OCC(CC)CCCC (stereo not shown) [IAJD 97]
3. CCCCCCCCCCCCCCCCCCOc1cc(COC(=O)CCCN2CCN(C)CC2)cc(OCCCCCCCCCCCC)c1 [IAJD 107]

result:
[102, 204, 146]

----------
# measurement_notes: Cryo-TEM of dendrimersomes from glycerol-JDs, number of vesicle layers
# Type: physicochemical
# assay_conditions: vesicles with 4 layers
measurement_label: Number of vesicle layers: 4 (count of vesicles)
Numbers only.

Summary for this molecule, CCCCCCCCCCCCOc1cc(OCCCCCCCCCCCC)cc(C(=O)OC[C@@H](COC(=O)C(C)(COC(=O)c2cc(OCCOCCOCCOC)c(OCCOCCOCCOC)c(OCCOCCOCCOC)c2)COC(=O)c2cc(OCCOCCOCCOC)c(OCCOCCOCCOC)c(OCCOCCOCCOC)c2)OC(=O)c2cc(OCCCCCCCCCCCC)cc(OCCCCCCCCCCCC)c2)c1 [Compound 1S, (3,5)-12G1-GC-(S)-BMPA-(3,4,5)-3EO-G1] : Number of vesicle layers: 4 (count of vesicles) is 4

----------
Hi there, I'd appreciate the recorded Size (d, nm) for every entry that follows.
# measurement_notes: Dimensions (size, PDI) of DNPs co-assembled from IAJDs and Luc-mRNA by DLS
# Type: physicochemical
# assay_conditions: Table 13; DNPs, IAJD 4 mg/mL + Luc-mRNA 0.10 mg/mL, acetate buffer pH 4.0
Answers are plain numbers, in nm.

CCCCCCCCCCOc1cc(COC(=O)CCCN2CCN(CCO)CC2)cc(OCCCCCCCCCC)c1 = 188

// input: 7 compounds below; output: Size (d, nm) for each
1. CCCCCCCCCCCCOc1cc(COC(=O)CCN2CCN(C)CC2)cc(OCCCCCCCCCCCC)c1
2. CCCCCCCCCCCCCCCCCCOc1cc(COC(=O)CCCN2CCN(C)CC2)cc(OCCCCCCCCCCCC)c1
3. CCCCCCCCCCCCOc1cc(COC(=O)CCCN2CCN(CCO)CC2)cc(OCCCCCCCCCCCC)c1
4. CCCCCCCCCCCCCCCCCCOc1cc(COC(=O)CCCN2CCN(C)CC2)cc(OCCCCCCCCCCCCCCCCCC)c1
5. CCCCCCCCCCCCCCCCCCOc1cc(COC(=O)CCCN2CCN(C)CC2)cc(OCCCCCCCCCCC)c1
6. CCCCCCCCCCCCOc1cc(COC(=O)CCCN2CCN(C)CC2)cc(OCCCCCCCCCCCC)c1OCCCCCCCCCCCC
7. CCCCCCCCCCCCCCOc1cc(COC(=O)CCCN2CCN(C)CC2)cc(OCCCCCCCCCCC)c1

result:
1. 171
2. 146
3. 237
4. 187
5. 111
6. 352
7. 94
